Attribute: % Response Agonist
target: μ-opioid receptor (Homo sapiens (Human), UniProt P35372); test: [35S]GTPγS μ-opioid receptor functional assay; type: biochemical; conditions: Conc. 3 μM; criteria ≥± 50%

| molecule | assayed_target | % Response Agonist |
| --- | --- | --- |
| COCCOCCOCC(=O)OC1=CCC2(OC(=O)COCCOCCOC)[C@H]3Cc4ccc(OC)c5c4[C@@]2(CCN3C)C1O5 (some centres unmarked) [6,14-bis-PEG oxycodone] | μ-opioid receptor (Homo sapiens (Human), UniProt P35372) | 85% |
| COc1ccc2c3c1OC1C(OC(C)=O)=CC[C@@]4(O)[C@@H](C2)N(C)CC[C@]314 (some centres unmarked) [6-acetyl oxycodone] | μ-opioid receptor (Homo sapiens (Human), UniProt P35372) | 62% |
| COc1ccc2c3c1OC1C(=O)CCC4(OC(C)=O)C(C2)N(C)CCC314 (centres unmarked) [14-acetyl oxycodone] | μ-opioid receptor (Homo sapiens (Human), UniProt P35372) | 79% |
| COCCOCCOCC(=O)OC1=CC[C@@]2(O)[C@H]3Cc4ccc(OC)c5c4[C@@]2(CCN3C)C1O5 (some centres unmarked) [6-PEG oxycodone] | μ-opioid receptor (Homo sapiens (Human), UniProt P35372) | 90% |
| CCCCCCCCCCCC(=O)OC1=CC[C@@]2(O)[C@H]3Cc4ccc(OC)c5c4[C@@]2(CCN3C)C1O5 (some centres unmarked) [6-lauroyl oxycodone] | μ-opioid receptor (Homo sapiens (Human), UniProt P35372) | 52% |
